Reported TD50 by item:
System: rodent lifetime carcinogenesis bioassay, tumor incidence TD50
Test: carcinogenic potency in animals, long-term in vivo studies, CPDB compilation (AID 1745844)
Details: mouse; strain B6C3F1; males; oral dosing; site: liver; lesion: hepatoma; dosed 76 weeks; study length 76 weeks
The source made the active and inactive calls. No rule for the calls is given here.

# count of solved cases: 4
CC=CC(=O)Oc1c(C(C)CCCCCC)cc([N+](=O)[O-])cc1[N+](=O)[O-] (configuration not stated)    2.32 mg/kg/day (inactive)
S=C([S-])NCCNC(=S)[S-].[Mn+2]    128 mg/kg/day (inactive)
CN(C)C(=S)S[Se](SC(=S)N(C)C)(SC(=S)N(C)C)SC(=S)N(C)C    26 mg/kg/day (inactive)
C=C(C)C(=O)Nc1ccc(Cl)c(Cl)c1    15.2 mg/kg/day (inactive)

*Q* Quick one: TD50 of O=C1C2CC=CCC2C(=O)N1SC(Cl)(Cl)Cl (configuration not stated) ?
*A* 86.1 mg/kg/day (inactive)

*Q* Quick one: TD50 of S=C(S)NCCNC(=S)S ?
*A* 866 mg/kg/day (inactive)

*Q* Quick one: TD50 of ClC1=C(Cl)C2(Cl)C3C(Cl)OC(Cl)C3C1(Cl)C2(Cl)Cl (configuration not stated) ?
*A* 0.5 mg/kg/day (inactive)

*Q* Quick one: TD50 of [S-]c1nc2ccccc2s1.[S-]c1nc2ccccc2s1.[Zn+2] ?
*A* 388 mg/kg/day (inactive)

*Q* Quick one: TD50 of CCN(CC)C(=S)SSC(=S)N(CC)CC ?
*A* 23.7 mg/kg/day

*Q* Quick one: TD50 of S=C([S-])NCCNC(=S)[S-].[Zn+2] ?
*A* 244 mg/kg/day (inactive)

*Q* Quick one: TD50 of c1ccc(Nc2ccc3ccccc3c2)cc1 ?
*A* 165 mg/kg/day

*Q* Quick one: TD50 of C=C1C[C@]23C[C@@]1(O)CC[C@H]2[C@@]12C=C[C@H](O)[C@@](C)(C(=O)O1)[C@H]2[C@@H]3C(=O)O ?
*A* 460 mg/kg/day (inactive)

*Q* Quick one: TD50 of O=C(O)Cc1c[nH]c2ccccc12 ?
*A* 113 mg/kg/day (inactive)

*Q* Quick one: TD50 of CC(C)OC(=O)COc1ccc(Cl)cc1Cl ?
*A* 93.6 mg/kg/day (inactive)

*Q* Quick one: TD50 of CC(Oc1cc(Cl)ccc1Cl)C(=O)O (configuration not stated) ?
*A* 36.7 mg/kg/day (inactive)

*Q* Quick one: TD50 of O=S(=O)(Oc1ccc(Cl)cc1)c1ccc(Cl)cc1 ?
*A* 422 mg/kg/day (inactive)

*Q* Quick one: TD50 of O=NN(c1ccccc1)c1ccccc1 ?
*A* 385 mg/kg/day

###

System: rodent lifetime carcinogenesis bioassay, tumor incidence TD50
Assay: carcinogenic potency in animals, long-term in vivo studies, CPDB compilation (AID 1745844)
Details: rat; strain Fischer 344; males; by gavage; site: liver; lesion: hepatocellular adenoma + hepatocellular carcinoma + neoplastic nodule; dosed 103 weeks; study length 104 weeks
Reported TD50 by item:
Numeric answer only, unit mg/kg/day assumed.

C[C@@H]1Cc2c(Cl)cc(C(=O)N[C@@H](Cc3ccccc3)C(=O)O)c(O)c2C(=O)O1    2.5
CC1(C)S[C@@H]2[C@H](NC(=O)COc3ccccc3)C(=O)N2[C@H]1C(=O)O    12200
CCCCCCc1ccc(O)cc1O    1530

*Q* Quick one: TD50 of C[C@H](CCC(=O)O)[C@H]1CC[C@H]2[C@@H]3CC[C@@H]4C[C@H](O)CC[C@]4(C)[C@H]3CC[C@]12C ?
*A* 2250

*Q* Quick one: TD50 of Clc1ccccc1 ?
*A* 328

*Q* Quick one: TD50 of OC[P+](CO)(CO)CO ?
*A* 24.5

*Q* Quick one: TD50 of c1cc(OCC2CO2)cc(OCC2CO2)c1 (configuration not stated) ?
*A* 640

###

Test system: rodent lifetime carcinogenesis bioassay, tumor incidence TD50
Test: carcinogenic potency in animals, long-term in vivo studies, CPDB compilation (AID 1745844)
Conditions: mouse; strain B6C3F1; males; oral dosing; site: any site (literature study); lesion: several types; types named in the paper; dosed 76 weeks; study length 76 weeks
Calls of active or inactive are those of the source. No rule for the calls is given here.
Reported TD50 by item:

Cc1cc(O)cc(C)c1N(C)C    34.8 mg/kg/day (inactive)
c1ccc2sc(SNC3CCCCC3)nc2c1    50.8 mg/kg/day (inactive)
CCN(CC)C(=S)S[Te](SC(=S)N(CC)CC)(SC(=S)N(CC)CC)SC(=S)N(CC)CC    8.41 mg/kg/day
CC(Oc1cc(Cl)c(Cl)cc1Cl)C(=O)O (stereo not given)    9.07 mg/kg/day (inactive)

*Q* Quick one: TD50 of O=NN(c1ccccc1)c1ccccc1 ?
*A* 897 mg/kg/day

*Q* Quick one: TD50 of NC(=S)Nc1cccc2ccccc12 ?
*A* 0.7 mg/kg/day (inactive)

*Q* Quick one: TD50 of Oc1ccc(OCc2ccccc2)cc1 ?
*A* 141 mg/kg/day (inactive)

*Q* Quick one: TD50 of C[N+](C)(C)CCCl ?
*A* 5.19 mg/kg/day

*Q* Quick one: TD50 of OC[C@@H](O)[C@H]1O[C@@H]2O[C@H](C(Cl)(Cl)Cl)O[C@@H]2[C@H]1O ?
*A* 4.07 mg/kg/day (inactive)

###

Reported TD50 by item:
System: rodent lifetime carcinogenesis bioassay, tumor incidence TD50
Test: carcinogenic potency in animals, long-term in vivo studies, CPDB compilation (AID 1745844)
Details: mouse; strain B6C3F1; males; oral dosing; site: lung; lesion: adenoma; dosed 76 weeks; study length 76 weeks
The source made the active and inactive calls. No rule for the calls is given here.

O=C(O)Cc1c[nH]c2ccccc12    500 mg/kg/day (inactive)
Cc1cc(OC(=O)N(C)C)n(C(C)C)n1    0.0156 mg/kg/day (inactive)

Kindly consider the entry below.
*Q* Please provide the recorded TD50 for CCCCN(CCCC)C(=S)[S-].CCCCN(CCCC)C(=S)[S-].[Ni+2] , tested on rodent lifetime carcinogenesis bioassay, tumor incidence TD50.
*A* 0.163 mg/kg/day (inactive)

###

System: rodent lifetime carcinogenesis bioassay, tumor incidence TD50
Experiment: carcinogenic potency in animals, long-term in vivo studies, CPDB compilation (AID 1745844)
Settings: mouse; strain B6C3F1; males; oral dosing; site: any site (literature study); lesion: several types; types named in the paper; dosed 76 weeks; study length 76 weeks
Calls of active or inactive are those of the source. No rule for the calls is given here.
Readout Type: TD50

# count of solved cases: 4
c1ccc2sc(SN3CCOCC3)nc2c1    200 mg/kg/day (inactive)
CC(=O)[O][Sn]([c]1ccccc1)([c]1ccccc1)[c]1ccccc1    117 mg/kg/day (inactive)
O=S(=O)(c1ccc(Cl)cc1)c1cc(Cl)c(Cl)cc1Cl    35.6 mg/kg/day (inactive)
CC(C)OC(=O)COc1ccc(Cl)cc1Cl    16.4 mg/kg/day (inactive)

*Q* Quick one: TD50 of N#CN ?
*A* 16.7 mg/kg/day

*Q* Quick one: TD50 of [S-]c1nc2ccccc2s1.[S-]c1nc2ccccc2s1.[Zn+2] ?
*A* 319 mg/kg/day (inactive)

###

Tested on: rodent lifetime carcinogenesis bioassay, tumor incidence TD50
Assay: carcinogenic potency in animals, long-term in vivo studies, CPDB compilation (AID 1745844)
Conditions: mouse; strain B6C3F1; males; oral dosing; site: any site (literature study); lesion: several types; types named in the paper; dosed 76 weeks; study length 76 weeks
Active and inactive are the calls of the source. No rule for the calls is given here.
Readout Type: TD50

c1ccc2cc(Nc3ccc(Nc4ccc5ccccc5c4)cc3)ccc2c1    25.9 mg/kg/day (inactive)
O=C1C2CC=CCC2C(=O)N1SC(Cl)(Cl)Cl (stereo not given)    42.5 mg/kg/day (inactive)
C=C(C)C(=O)Nc1ccc(Cl)c(Cl)c1    5.39 mg/kg/day (inactive)
S=C=Nc1ccccc1    40.2 mg/kg/day (inactive)
S=C([S-])NCCNC(=S)[S-].[Zn+2]    189 mg/kg/day (inactive)
O=S(=O)(Oc1ccc(Cl)cc1)c1ccc(Cl)cc1    84.5 mg/kg/day (inactive)
CCCCCCCCCCCCN=C(N)N    10.8 mg/kg/day (inactive)
CCN(CC)C(=S)[S-].CCN(CC)C(=S)[S-].[Cd+2]    6.2 mg/kg/day (inactive)

*Q* Quick one: TD50 of c1ccc2sc(SSc3nc4ccccc4s3)nc2c1 ?
*A* 401 mg/kg/day (inactive)

*Q* Quick one: TD50 of [Cu+2].[O-]c1cccc2cccnc12.[O-]c1cccc2cccnc12 ?
*A* 2050 mg/kg/day (inactive)

*Q* Quick one: TD50 of c1ccc(Nc2ccc3ccccc3c2)cc1 ?
*A* 108 mg/kg/day

*Q* Quick one: TD50 of CN(C)C(=O)NC1CC2CC1C1CCCC21 (stereo not given) ?
*A* 259 mg/kg/day (inactive)

*Q* Quick one: TD50 of CCCCN(CCCC)C(=S)[S-].CCCCN(CCCC)C(=S)[S-].[Zn+2] ?
*A* 252 mg/kg/day (inactive)

*Q* Quick one: TD50 of C=C1C[C@]23C[C@@]1(O)CC[C@H]2[C@@]12C=C[C@H](O)[C@@](C)(C(=O)O1)[C@H]2[C@@H]3C(=O)O ?
*A* 214 mg/kg/day (inactive)

*Q* Quick one: TD50 of O=C(O)Cc1c[nH]c2ccccc12 ?
*A* 40.3 mg/kg/day (inactive)
